All values here come from PubChem BioAssay.

test: reversal of MRP1-mediated doxorubicin resistance, pilot screen, H69AR cells, doxorubicin co-treatment (AID 601); conditions: H69AR cells + 2 uM doxorubicin, CellTiter-Glo, 72 h; measured here: viability with 2 uM doxorubicin; at 10 µM; stronger effect = lower value
Binary call on viability with cut-off 90%: strictly below means rule met, and equality or higher means rule not met.

CCCSc1nc(N)c(C#N)c(-c2ccc(C)cc2)c1C#N
rule met
CN(C)c1cccc(C(=O)OCC(=O)NCc2ccco2)c1
rule met
COc1ccc(N2C(=O)C3C4C=CC(C4)C3C2=O)nn1 (centres undefined)
rule met
O=C1OC(c2ccc(O)cc2)(c2ccc(O)cc2)c2ccccc21
rule not met
O=C1C2ON(c3ccccc3)C(c3cccnc3)C2C(=O)N1c1ccccc1 (centres undefined)
rule met

Problem: For the compound COc1cccc(Nc2nnc(SCC(=O)N3CC(C)OC(C)C3)s2)c1 (centres undefined) , is viability under 90%? rule not met
